- Test system: HT-29
- EXPERIMENTAL PROTOCOL: NCI tumour cell line growth inhibition, 48 h
Calls of active or inactive are those of the source. No stated cut-off is given here; in the data, active = GI50 up to about 1.1 µM and inactive = higher.
# maps each entry to its GI50
PROPERTY NAME: GI50

# COMPOUND, PROPERTY NAME, EXPERIMENTAL VALUE
records = [
    ("O/N=C1/C(=C/c2ccccc2)CCCC1C(NO)c1ccccc1 (centres undefined)", "GI50", "> 100 µM (inactive)"),
    ("CC(=O)Nc1ccc2c(c1)/C(=C\\c1ccc([N+](C)(C)C)cc1)c1ccccc1-2", "GI50", "35.5 µM (inactive)"),
    ("CC(=O)NCCCCCCNC(C)=O [HEXAMETHYLENEBISACETAMIDE]", "GI50", "4840 µM (inactive)"),
    ("Clc1ccc(Cc2nc3cc4ccccc4cc3[nH]2)cc1Cl", "GI50", "10.2 µM (inactive)"),
    ("O=C(O)CC1OCC=C2CN3CCC45C6=CC(=O)C(O)=C([N+](=O)[O-])C6=NC4C1C2CC35 (centres undefined)", "GI50", "> 100 µM (inactive)"),
    ("N=C(N)NCCCC(Nc1c2ccccc2nc2ccccc12)C(=O)O (centres undefined)", "GI50", "> 100 µM (inactive)"),
    ("COC(=O)C1CC(C(=O)OC)c2nc3cc([N+](=O)[O-])ccc3nc21 (centres undefined)", "GI50", "51.3 µM (inactive)"),
    ("O=C(O)CSCc1cc2c(O)c(c1)Cc1cc(CSCC(=O)O)cc(c1O)Cc1cc(CSCC(=O)O)cc(c1O)Cc1cc(CSCC(=O)O)cc(c1O)C2", "GI50", "> 100 µM (inactive)"),
    ("Nc1ccc(C(=O)N/C(=C\\c2cccc([N+](=O)[O-])c2)c2nc3c4c(ccc3[nH]2)C(=O)c2ccccc2C4=O)cc1", "GI50", "62.5 µM (inactive)"),
]

###

- Test system: MOLT-4
- EXPERIMENTAL PROTOCOL: NCI tumour cell line growth inhibition, 48 h
The source made the active and inactive calls. No stated cut-off is given here; in the data, active = GI50 up to about 1.1 µM and inactive = higher. Peptide text beside a SMILES is read from it.
Classes used: class 1 for active, class 0 for inactive

# COMPOUND, ASSIGNED CATEGORY
records = [
    ("N=C(N)NCCCC(Nc1c2ccccc2nc2ccccc12)C(=O)O (stereo not given)", "class 0"),
    ("O=C(O)C1=C(C(=O)O)N(c2ccncc2)C(c2ccco2)=CC1c1ccccc1[N+](=O)[O-] (stereo not given)", "class 0"),
    ("COC(=O)/C=C(/C=C1/C(C#N)=C(N)N(c2ccc(Cl)cc2)C1(C)/C(=C/C(=O)OC)C(=O)OC)C(=O)OC (stereo not given)", "class 0"),
    ("COc1ccccc1Nc1nc(N)nc(N)c1N=O", "class 0"),
    ("Cc1c(O)c(OC2OC(CO)C(O)C(O)C2O)cc2c1C=C[C@@H]1[C@@]2(C)C(=O)C[C@]2(C)[C@@H]([C@@](C)(O)C(O)/C=C/C(C)(C)O)[C@H](O)C[C@@]12C (stereo not given in full)", "class 0"),
    ("CC(=O)O[C@H]1C[C@]2(O)[C@@H]3CC[C@@H]4C[C@@H](O)CC[C@]4(C)[C@H]3CC[C@]2(C)[C@H]1C1=CC(=O)OC1", "class 1"),
    ("CCCCc1c2c(nc3c1CCc1cc4cc5c(nc4nc1-3)-c1nc3c(c(CCCC)c1CC5)CCCC3)CCCC2", "class 0"),
    ("CN(C)CC1CN(C(=O)Nc2ccccc2)C(=N)O1 (stereo not given)", "class 0"),
    ("COc1cc2c3c(n(C)c(=O)c2cc1OC)-c1cc2c(cc1/C3=C\\CCCCl)OCO2", "class 0"),
    ("COc1cccc(CCCNC(=O)Cc2ccccc2CO)c1", "class 0"),
    ("CN(C)CCCNC(=O)c1cc2/c(=C\\c3ccc(N(C)C)cc3)c3ccccc3n2[n+]1C", "class 0"),
    ("CC(C)(C)C(=O)CC(=O)C(C)(C)C.CC(C)(C)C(=O)CC(=O)C(C)(C)C.[SiH4]", "class 0"),
    ("O=C1C(Cl)=C(N2CCC[C@H]2CO)C(=O)c2c(O)ccc(O)c21", "class 1"),
    ("CC(=O)NC(CS)C(=O)NC(CO)C(=O)NC(CO)C(=O)NC(Cc1c[nH]c2ccccc12)C(=O)N1CCCC1C(=O)NC(CO)C(=O)NC(Cc1c[nH]c2ccccc12)C(=O)NC(Cc1c[nH]cn1)C(=O)NC(CO)C(=O)NC(Cc1c[nH]c2ccccc12)C(=O)NCC(=O)NCC(=O)NC(C)C(=O)NC(CCC(N)=O)C(=O)NC(CCCCN)C(=O)NC(C)C(=O)NC(CCCNC(=N)N)C(=O)NC(CCCCN)C(N)=O (stereo not given) (Ac-CSSWPSWHSWGGAQKARK-NH2; configuration not given here)", "class 0"),
    ("Brc1ccccc2cc(-c3ccccc3)nc1-2", "class 0"),
]
